# System: biotinyl-Ile-oxazolone
# Experiment Description: self-aminoacylation, catalytic enhancement (BIO) (fold over background); higher = more active; k-Seq, kA / k0A0; sequences stand for … in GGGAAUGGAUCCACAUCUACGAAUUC…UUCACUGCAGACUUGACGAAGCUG
Fewer inactive variants are shown than the library holds.
Below, each of the sequences is paired with its reported self-aminoacylation value.
Give only the figure.

# Sequence Data, Recorded Number
data = [
    ("CUAGUUCAAACAACCGGUCUG [Fam1A.1 aminoacylation ribozyme variant]", 1.23),
    ("AUUACCAUGGUCAUCGAGAGA [Fam2.1 aminoacylation ribozyme variant]", 0.797),
    ("CCACAAUUCGAGCAAUCGGUC [Fam1B.1 aminoacylation ribozyme variant]", 1.28),
]

# context switch: different sequence, same self-aminoacylation
Can you share its self-aminoacylation? I mean this sequence: ACUACCCUGGUCAUCGAGGGA [Fam2.1 aminoacylation ribozyme variant]
2.12
